# system: human serotonin transporter (hSERT) (Homo sapiens)
# Sequence (P31645 whole entry): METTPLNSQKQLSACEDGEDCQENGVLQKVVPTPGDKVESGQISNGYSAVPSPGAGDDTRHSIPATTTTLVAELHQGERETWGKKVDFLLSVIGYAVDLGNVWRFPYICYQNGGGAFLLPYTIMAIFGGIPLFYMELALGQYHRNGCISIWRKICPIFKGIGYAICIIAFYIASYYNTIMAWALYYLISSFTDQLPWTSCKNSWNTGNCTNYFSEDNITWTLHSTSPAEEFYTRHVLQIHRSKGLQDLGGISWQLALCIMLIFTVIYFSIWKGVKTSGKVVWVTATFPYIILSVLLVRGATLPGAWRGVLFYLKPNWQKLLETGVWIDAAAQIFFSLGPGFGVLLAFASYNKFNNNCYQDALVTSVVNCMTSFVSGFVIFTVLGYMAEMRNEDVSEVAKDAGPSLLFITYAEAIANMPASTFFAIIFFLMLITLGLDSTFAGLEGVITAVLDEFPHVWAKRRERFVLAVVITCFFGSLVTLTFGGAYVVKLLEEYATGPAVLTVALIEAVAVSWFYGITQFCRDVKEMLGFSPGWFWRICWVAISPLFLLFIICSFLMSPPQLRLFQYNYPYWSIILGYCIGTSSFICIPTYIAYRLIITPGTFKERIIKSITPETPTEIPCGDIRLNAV
pKi: −log10 of the molar value. Where a name gives a salt, the structure may show the parent alone.
Would you please tag the item Y when its pKi is 7 or above, and N when it is below?

**Query** Is pKi at least 7? Consider Fc1ccccc1-n1nc(O[C@H]2CCCN2)c2ccccc21 [Example 12, hydrochloride]
**Result** N

**Query** Please check the record Clc1ccc2c(c1)c(OC1CCNCC1)nn2-c1ccccc1 [Example 101, hydrochloride] and state if its pKi is at or above 7.
**Result** N

**Query** Check the entry Cc1ccc2c(OC3CCNCC3)nn(-c3ccccc3)c2c1 [Example 71, hydrochloride] : does pKi equal or exceed 7?
**Result** Y

**Query** API: above_or_equal(metric=pKi, cutoff=7) for item Clc1ccc2c(c1)c(OCC1CCCNC1)nn2-c1ccccc1 (racemic) [Example 69, hydrochloride]
**Result** N

**Query** Check this molecule for pKi at or above 7: c1ccc(-n2nc(OC[C@@H]3CNCCO3)c3cccnc32)cc1 [Example 105, hydrochloride]
**Result** N

**Query** Quick check: does Cc1ccc2c(OCC3CCCNC3)nn(-c3ccccc3F)c2c1 (stereo not drawn) [Example 74, hydrochloride] have pKi greater than or equal to 7?
**Result** N

**Query** Does Cc1ccc2c(OC3CCNCC3)nn(-c3ccccc3F)c2c1 [Example 72, hydrochloride] have a reported pKi of at least 7?
**Result** Y

**Query** Exam item: decide whether the reported pKi for Fc1ccc2c(c1)c(OC[C@@H]1CNCCO1)nn2-c1ccccc1F [Example 46, maleate] is at least 7.
**Result** N

**Query** Hello, I need to know if Fc1ccc(F)c(-n2nc(OC3CCNCC3)c3cc(F)ccc32)c1 [Example 39, hydrochloride] has measured pKi not below 7. Thanks!
**Result** Y

**Query** Check if pKi >= 7 (inclusive). Item: Fc1ccc(F)c(-n2nc(OC[C@@H]3CNCCO3)c3cc(F)ccc32)c1 [Example 26, maleate]
**Result** N

**Query** Determine whether measured pKi meets or exceeds 7 for Fc1ccc(F)c(-n2nc(OC[C@H]3CCCNC3)c3c(F)cccc32)c1 [Example 91, hydrochloride]
**Result** N

**Query** Answer whether pKi of c1ccc(-n2nc(OCC3CCNCC3)c3ccccc32)cc1 (racemic) [Example 17, hydrochloride] is greater than or equal to 7.
**Result** Y

**Query** API: above_or_equal(metric=pKi, cutoff=7) for item Fc1ccc(-n2nc(OCC3CCCNC3)c3ccccc32)cc1 (racemic) [Example 67, hydrochloride]
**Result** N

**Query** Given Fc1ccccc1-n1nc(OCC2CCCNC2)c2cc(Cl)ccc21 (stereo not drawn) [Example 73, hydrochloride] , state whether its pKi is at least 7.
**Result** N

**Query** Quick check: does Fc1ccc(-n2nc(OC[C@@H]3CNCCO3)c3cc(F)ccc32)c(F)c1.O=C(O)/C=C\C(=O)O [Example 48, maleate] have pKi greater than or equal to 7?
**Result** N

**Query** Exam item: decide whether the reported pKi for Fc1ccccc1-n1nc(OC[C@H]2CCCNC2)c2ccccc21 [Example 6, hydrochloride] is at least 7.
**Result** N

**Query** Answer whether pKi of Cc1cccc2c(OC3CCNCC3)nn(-c3ccccc3)c12 [Example 59, hydrochloride] is greater than or equal to 7.
**Result** Y

**Query** Kindly determine if pKi recorded for Fc1ccc2c(c1)c(OC[C@@H]1CNCCO1)nn2-c1c(F)cccc1F [Example 50, hydrochloride] is above or exactly 7.
**Result** N

**Query** Given Fc1ccc(F)c(-n2nc(OC3CCNCC3)c3ccccc32)c1 [Example 27, hydrochloride] , state whether its pKi is at least 7.
**Result** Y

**Query** Check if pKi >= 7 (inclusive). Item: Clc1cccc2c(OC3CCNCC3)nn(-c3ccccc3)c12 [Example 61, hydrochloride]
**Result** Y

**Query** Record Fc1ccc(F)c(-n2nc(OC[C@@H]3CNCCO3)c3ccccc32)c1 [Example 28, maleate] ; criterion: pKi no lower than 7. Met?
**Result** N

**Query** Can Fc1ccc(-n2nc(OC[C@H]3CCCNC3)c3cc(F)ccc32)cc1 [Example 80, hydrochloride] be said to have pKi at or above 7?
**Result** Y
